Origin of values: patent US9850283B2

- TARGET OR SYSTEM: Human PD-L1/PD-1 (Homo sapiens)
- Construct: made in house; host or cells: HEK293T
- ASSAY NOTES: HTRF PD-1-Ig/PD-L1-His binding assay (human PD-L1)
- CONDITION PARAMETERS: cluster symbol; read-out: HTRF IC50 cluster
Positions of bridges follow the written chain, without caps; N, C: chain ends. Non-standard residues stand in square brackets, D forms with d. Residues, ends and D or L forms follow the SMILES beside them. Phe(3-OMe) = COc1cccc(C[C@H](N)C(=O)O)c1; cisHyp = O=C(O)[C@@H]1C[C@H](O)CN1; NMeF = CN[C@@H](Cc1ccccc1)C(=O)O; NMeNle = CCCC[C@H](NC)C(=O)O; NMeA = CN[C@@H](C)C(=O)O; Sar = CNCC(=O)O
METRIC: IC50

Example entries begin here.
CCCC[C@H]1C(=O)N(C)[C@@H](CCCC)C(=O)N[C@@H](CCCNC(=N)N)C(=O)N[C@H](C(=O)NCC(N)=O)CSCC(=O)N[C@@H](Cc2ccc(O)cc2)C(=O)N(C)[C@@H](C)C(=O)N[C@@H](CC(N)=O)C(=O)N2CCC[C@H]2C(=O)N[C@@H](C)C(=O)N[C@@H](CC(C)C)C(=O)N2C[C@@H](O)C[C@H]2C(=O)N[C@@H](Cc2c[nH]c3ccccc23)C(=O)N[C@@H](CO)C(=O)N[C@@H](Cc2c[nH]c3ccccc23)C(=O)N1C [Example 1142] ({CH2CO}-Y[NMeA]NPAL[cisHyp]WSW[NMeNle][NMeNle]RCG-NH2; thioether N-14) ... 6.76 to 30.3 nM
CCCC[C@H]1C(=O)N(C)CC(=O)N[C@@H](CC(=O)O)C(=O)N[C@@H](C(C)C)C(=O)N(C)[C@@H](Cc2ccccc2)C(=O)N[C@@H](Cc2ccc(O)cc2)C(=O)N(C)CC(=O)N[C@@H](Cc2c[nH]c3ccccc23)C(=O)N[C@@H](Cc2ccc(O)cc2)C(=O)N[C@@H](CC(C)C)C(=O)N[C@H](C(=O)NCC(N)=O)CSCC(=O)N[C@@H](Cc2cccc(OC)c2)C(=O)N(C)[C@@H](Cc2ccccc2)C(=O)N1C [Example 3095] ({CH2CO}-[Phe(3-OMe)][NMeF][NMeNle][Sar]DV[NMeF]Y[Sar]WYLCG-NH2; thioether N-13) ... 6.76 to 30.3 nM

// returns reported IC50 for input CCCC[C@H]1C(=O)N(C)[C@@H](CCCC)C(=O)N[C@@H](CCCNC(=N)N)C(=O)N[C@H](C(=O)NCC(N)=O)CSCC(=O)N[C@@H](Cc2ccc(O)cc2)C(=O)N(C)[C@@H](C)C(=O)N[C@@H](CCC(=O)O)C(=O)N2CCC[C@H]2C(=O)N[C@@H](Cc2cnc[nH]2)C(=O)N[C@@H](CC(C)C)C(=O)N2CCC[C@H]2C(=O)N[C@@H](Cc2c[nH]c3ccccc23)C(=O)N[C@@H](CO)C(=O)N[C@@H](Cc2c[nH]c3ccccc23)C(=O)N1C [Example 1167] ({CH2CO}-Y[NMeA]EPHLPWSW[NMeNle][NMeNle]RCG-NH2; thioether N-14)
0.385 to 6.74 nM

###

# IC50 annotations
- TARGET OR SYSTEM: Hu PD-L1/PD-1 (Homo sapiens)
- Sequence (Q9NZQ7 19-290): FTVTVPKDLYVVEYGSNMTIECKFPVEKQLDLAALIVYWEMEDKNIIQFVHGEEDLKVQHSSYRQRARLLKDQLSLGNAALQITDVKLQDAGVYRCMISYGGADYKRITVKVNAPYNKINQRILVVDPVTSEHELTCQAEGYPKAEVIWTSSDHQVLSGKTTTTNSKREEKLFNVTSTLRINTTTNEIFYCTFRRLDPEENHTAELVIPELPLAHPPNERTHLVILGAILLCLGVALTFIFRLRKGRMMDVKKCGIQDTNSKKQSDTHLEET
- ASSAY NOTES: Cell binding assay Hu PD-L1/PD-1 (Tables 11-13, cell line not given)
- Format: cell-based
Positions of bridges follow the written chain, without caps; N, C: chain ends. Non-standard residues stand in square brackets, D forms with d. Residues, ends and D or L forms follow the SMILES beside them. ξ: configuration not given here. 3Thi = N[C@@H](Cc1ccsc1)C(=O)O; NMeNle = CCCC[C@H](NC)C(=O)O; NMeA = CN[C@@H](C)C(=O)O; ξNMeA = CNC(C)C(=O)O; ξP = O=C(O)C1CCCN1; ξC = NC(CS)C(=O)O; Sar = CNCC(=O)O
The answer is to be given in nM; state only the numeric part.

CCCC[C@H]1C(=O)N(C)[C@@H](CCCC)C(=O)N[C@@H](CCCNC(=N)N)C(=O)N[C@H](C(=O)NCC(N)=O)CSCC(=O)N[C@@H](Cc2ccc(O)cc2)C(=O)N(C)[C@@H](C)C(=O)N[C@@H](CC(N)=O)C(=O)N2CCC[C@H]2C(=O)N[C@@H](Cc2cnc[nH]2)C(=O)N[C@@H](CC(C)C)C(=O)N(C)CC(=O)N[C@@H](Cc2c[nH]c3ccccc23)C(=O)N[C@@H](CO)C(=O)N[C@@H](Cc2c[nH]c3ccccc23)C(=O)N1C ... 3
CCCC[C@H]1C(=O)N(C)[C@@H](CCCC)C(=O)N[C@@H](CCCNC(=N)N)C(=O)NC(C(=O)NCC(N)=O)CSCC(=O)N[C@@H](Cc2ccsc2)C(=O)N(C)[C@@H](C)C(=O)N[C@@H](CC(N)=O)C(=O)N2CCC[C@H]2C(=O)N[C@@H](Cc2cnc[nH]2)C(=O)N[C@@H](CC(C)C)C(=O)N(C)CC(=O)N[C@@H](Cc2c[nH]c3ccccc23)C(=O)N[C@@H](CO)C(=O)N[C@@H](Cc2c[nH]c3ccccc23)C(=O)N1C (stereo partly drawn) [Compound No. 40] ({CH2CO}-[3Thi][NMeA]NPHL[Sar]WSW[NMeNle][NMeNle]R[ξC]G-NH2; thioether N-14) ... 20
CCCC[C@H]1C(=O)N(C)[C@@H](CCCC)C(=O)N[C@@H](CCCNC(=N)N)C(=O)N[C@H](C(=O)NCC(N)=O)CSCC(=O)N[C@@H](Cc2ccccc2)C(=O)N(C)[C@@H](C)C(=O)N[C@@H](CC(N)=O)C(=O)N2CCCC2C(=O)N[C@@H](Cc2cnc[nH]2)C(=O)N[C@@H](CC(C)C)C(=O)N(C)CC(=O)N[C@@H](Cc2c[nH]c3ccccc23)C(=O)N[C@@H](C)C(=O)N[C@@H](Cc2c[nH]c3ccccc23)C(=O)N1C (stereo partly drawn) [Compound No. 16] ({CH2CO}-F[NMeA]N[ξP]HL[Sar]WAW[NMeNle][NMeNle]RCG-NH2; thioether N-14) ... 13

Could you now look at the following compound, please?
// returns reported IC50 for input CCCC[C@H]1C(=O)N(C)[C@@H](CCCC)C(=O)N[C@@H](CCCNC(=N)N)C(=O)N[C@H](C(=O)NCC(N)=O)CSCC(=O)N[C@@H](Cc2ccccc2)C(=O)N(C)C(C)C(=O)N[C@@H](CC(N)=O)C(=O)N2CCC[C@H]2C(=O)N[C@@H](Cc2cnc[nH]2)C(=O)N[C@@H](CC(C)C)C(=O)N[C@@H](Cc2cnc[nH]2)C(=O)N[C@@H](Cc2c[nH]c3ccccc23)C(=O)N[C@@H](CO)C(=O)N[C@@H](Cc2c[nH]c3ccccc23)C(=O)N1C (stereo partly drawn) [Compound No. 53] ({CH2CO}-F[ξNMeA]NPHLHWSW[NMeNle][NMeNle]RCG-NH2; thioether N-14)
47

###

- TARGET OR SYSTEM: Human PD-L1/PD-1 (Homo sapiens, UniProt Q9NZQ7)
- Construct: made in house; host or cells: HEK293T
- Sequence (Q9NZQ7 with tags, fused parts or gaps): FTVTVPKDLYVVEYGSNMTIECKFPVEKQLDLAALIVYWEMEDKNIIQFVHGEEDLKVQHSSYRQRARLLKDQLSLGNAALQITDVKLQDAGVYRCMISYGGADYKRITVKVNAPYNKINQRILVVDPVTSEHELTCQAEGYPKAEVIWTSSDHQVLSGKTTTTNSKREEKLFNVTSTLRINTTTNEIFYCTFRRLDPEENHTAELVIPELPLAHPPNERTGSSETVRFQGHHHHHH
- ASSAY NOTES: HTRF PD-1-Ig/PD-L1-His binding assay (human PD-L1)
- CONDITION PARAMETERS: cluster symbol; read-out: HTRF IC50 cluster
Positions of bridges follow the written chain, without caps; N, C: chain ends. Non-standard residues stand in square brackets, D forms with d. Residues, ends and D or L forms follow the SMILES beside them. Pro(4R-NH2) = N[C@H]1CN[C@H](C(=O)O)C1; Hyp = O=C(O)[C@@H]1C[C@@H](O)CN1; NMeF = CN[C@@H](Cc1ccccc1)C(=O)O; NMeNle = CCCC[C@H](NC)C(=O)O; NMeA = CN[C@@H](C)C(=O)O; Dap = NC[C@H](N)C(=O)O; Sar = CNCC(=O)O
# IC50 annotations

Can you look up IC50 on Human PD-L1/PD-1 (Homo sapiens, UniProt Q9NZQ7) for CCCC[C@H]1C(=O)N2CCC[C@@H]2C(=O)N2C[C@H](N)C[C@H]2C(=O)N[C@@H](C(C)C)C(=O)N(C)[C@@H](Cc2ccccc2)C(=O)N[C@@H](Cc2ccc(O)cc2)C(=O)N(C)CC(=O)N[C@@H](Cc2c[nH]c3ccccc23)C(=O)N[C@@H](Cc2ccc(O)cc2)C(=O)N[C@@H](CC(C)C)C(=O)N[C@H](C(=O)NCC(N)=O)CSCC(=O)N[C@@H](Cc2ccccc2)C(=O)N(C)[C@@H](Cc2ccccc2)C(=O)N1C [Example 3175] ({CH2CO}-F[NMeF][NMeNle][dP][Pro(4R-NH2)]V[NMeF]Y[Sar]WYLCG-NH2; thioether N-13) ?
6.76 to 30.3 nM

Can you look up IC50 on Human PD-L1/PD-1 (Homo sapiens, UniProt Q9NZQ7) for CCCC[C@H]1C(=O)N(C)[C@@H](CCCC)C(=O)N[C@@H](CCCNC(=N)N)C(=O)N[C@H](C(=O)NCC(N)=O)CSCC(=O)N[C@@H](Cc2ccc(O)cc2)C(=O)N(C)[C@@H](C)C(=O)N[C@@H](CC(N)=O)C(=O)N2CCC[C@H]2C(=O)N[C@@H](CN)C(=O)N[C@@H](CC(C)C)C(=O)N2C[C@H](O)C[C@H]2C(=O)N[C@@H](Cc2c[nH]c3ccccc23)C(=O)N[C@@H](CO)C(=O)N[C@@H](Cc2c[nH]c3ccccc23)C(=O)N1C [Example 1114] ({CH2CO}-Y[NMeA]NP[Dap]L[Hyp]WSW[NMeNle][NMeNle]RCG-NH2; thioether N-14) ?
6.76 to 30.3 nM
